Recorded values, source ChEMBL document CHEMBL1126972.

The entries below are paired with their reported log10 EC30.
# test system: UniProtKB P22303
# Sequence (P22303 whole entry): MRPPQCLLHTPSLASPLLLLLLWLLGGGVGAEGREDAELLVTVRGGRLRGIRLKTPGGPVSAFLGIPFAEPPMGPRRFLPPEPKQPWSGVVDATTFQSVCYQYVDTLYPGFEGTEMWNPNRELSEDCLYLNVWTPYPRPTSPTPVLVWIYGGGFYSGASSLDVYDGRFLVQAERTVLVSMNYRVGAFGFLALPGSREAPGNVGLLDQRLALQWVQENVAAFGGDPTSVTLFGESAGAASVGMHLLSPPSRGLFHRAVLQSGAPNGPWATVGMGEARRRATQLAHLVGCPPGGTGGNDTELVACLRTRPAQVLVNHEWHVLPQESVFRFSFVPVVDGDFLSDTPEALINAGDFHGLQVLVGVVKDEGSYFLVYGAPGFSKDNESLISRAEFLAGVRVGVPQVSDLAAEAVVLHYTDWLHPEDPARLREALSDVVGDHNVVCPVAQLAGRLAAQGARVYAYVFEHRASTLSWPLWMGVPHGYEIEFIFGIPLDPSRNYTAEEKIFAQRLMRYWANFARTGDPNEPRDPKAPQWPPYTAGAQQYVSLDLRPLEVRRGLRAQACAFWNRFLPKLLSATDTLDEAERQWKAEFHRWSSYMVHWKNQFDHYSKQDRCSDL
# settings: Cavia porcellus; Ileum
# Description: In vitro gastrointestinal motility enhancing activity was determined by potentiating action on electrically evoked contraction of the isolated guinea pig ileum
readout label: log10 EC30 (log10 of the value in µM)

>  <molecule>
C/N=c1\c(O)c(O)\c1=N/CCNCc1ccc(CN2CCCCC2)o1

>  <test system>
UniProtKB P22303

>  <readout label>
log10 EC30

>  <reported result>
0.86

$$$$
>  <molecule>
CNC(NCCNCc1ccc(CN2CCCCC2)o1)=C(C#N)C#N

>  <test system>
UniProtKB P22303

>  <readout label>
log10 EC30

>  <reported result>
0.61

$$$$
>  <molecule>
CCN(CC)Cc1ccc(CNCCN2CCNC2=C(C#N)C#N)o1

>  <test system>
UniProtKB P22303

>  <readout label>
log10 EC30

>  <reported result>
0.00

$$$$
>  <molecule>
N#CC(C#N)=C1NCCN1CCNCc1ccc(CN2CCC(O)CC2)o1

>  <test system>
UniProtKB P22303

>  <readout label>
log10 EC30

>  <reported result>
-0.37

$$$$
>  <molecule>
COC1CCCN(Cc2ccc(CNCCN3CCNC3=C(C#N)C#N)o2)C1 (centres undefined)

>  <test system>
UniProtKB P22303

>  <readout label>
log10 EC30

>  <reported result>
0.15

$$$$
>  <molecule>
N#CC(C#N)=C1NCCN1CCNCc1ccc(CN2CCCCC2)o1

>  <test system>
UniProtKB P22303

>  <readout label>
log10 EC30

>  <reported result>
-1.80

$$$$
>  <molecule>
N#CC(C#N)=C1NCCN1CCNCc1ccc(CN2CCOCC2)o1

>  <test system>
UniProtKB P22303

>  <readout label>
log10 EC30

>  <reported result>
1.11

$$$$
>  <molecule>
CCN(C)Cc1ccc(CNCCN2CCNC2=C(C#N)C#N)o1

>  <test system>
UniProtKB P22303

>  <readout label>
log10 EC30

>  <reported result>
-0.27

$$$$
>  <molecule>
CN1CCN(Cc2ccc(CNCCN3CCNC3=C(C#N)C#N)o2)CC1

>  <test system>
UniProtKB P22303

>  <readout label>
log10 EC30

>  <reported result>
0.23

$$$$
>  <molecule>
COC1CCN(Cc2ccc(CNCCN3CCNC3=C(C#N)C#N)o2)CC1

>  <test system>
UniProtKB P22303

>  <readout label>
log10 EC30

>  <reported result>
1.04

$$$$
>  <molecule>
CNC(NCCNCc1ccc(CN2CCCC2)o1)=C(C#N)C#N

>  <test system>
UniProtKB P22303

>  <readout label>
log10 EC30

>  <reported result>
0.30

$$$$
>  <molecule>
CNC(NCCNCc1ccc(CN(C(C)C)C(C)C)o1)=C(C#N)C#N

>  <test system>
UniProtKB P22303

>  <readout label>
log10 EC30

>  <reported result>
0.93

$$$$
>  <molecule>
N#CC(C#N)=C1NCCN1CCNCc1ccc(CN2CC=CCC2)o1

>  <test system>
UniProtKB P22303

>  <readout label>
log10 EC30

>  <reported result>
-1.09

$$$$
>  <molecule>
CC1CCCN(Cc2ccc(CNCCN3CCNC3=C(C#N)C#N)o2)C1 (centres undefined)

>  <test system>
UniProtKB P22303

>  <readout label>
log10 EC30

>  <reported result>
-0.39

$$$$
>  <molecule>
CNC(=C[N+](=O)[O-])NCCSCc1ccc(CN(C)C)o1

>  <test system>
UniProtKB P22303

>  <readout label>
log10 EC30

>  <reported result>
0.26

$$$$
>  <molecule>
N#CC(C#N)=C1NCCN1CCNCc1ccc(CN2CCSCC2)o1

>  <test system>
UniProtKB P22303

>  <readout label>
log10 EC30

>  <reported result>
0.46

$$$$
>  <molecule>
CN(C)Cc1ccc(CNCCN2CCNC2=C(C#N)C#N)o1

>  <test system>
UniProtKB P22303

>  <readout label>
log10 EC30

>  <reported result>
-0.43

$$$$
>  <molecule>
N#CC(C#N)=C1NCCN1CCNCc1ccc(CN2CCCC2)o1

>  <test system>
UniProtKB P22303

>  <readout label>
log10 EC30

>  <reported result>
-0.51

$$$$
>  <molecule>
CC1CCN(Cc2ccc(CNCCN3CCNC3=C(C#N)C#N)o2)CC1

>  <test system>
UniProtKB P22303

>  <readout label>
log10 EC30

>  <reported result>
-0.59

$$$$
>  <molecule>
CC1CCCCN1Cc1ccc(CNCCN2CCNC2=C(C#N)C#N)o1 (centres undefined)

>  <test system>
UniProtKB P22303

>  <readout label>
log10 EC30

>  <reported result>
-0.04

$$$$
>  <molecule>
N#CC(C#N)=C1NCCN1CCNCc1ccc(CN2CCCC(O)C2)o1 (centres undefined)

>  <test system>
UniProtKB P22303

>  <readout label>
log10 EC30

>  <reported result>
-0.34

$$$$
>  <molecule>
CCN(CC)CCNC(=O)c1cc(Cl)c(N)cc1OC

>  <test system>
UniProtKB P22303

>  <readout label>
log10 EC30

>  <reported result>
-0.37

$$$$
>  <molecule>
N#CC(C#N)=C1NCCN1CCNCc1ccc(CN2CCCCCC2)o1

>  <test system>
UniProtKB P22303

>  <readout label>
log10 EC30

>  <reported result>
-0.49

$$$$
>  <molecule>
CNC(NCCNCc1ccc(CN(C)C)o1)=C(C#N)C#N

>  <test system>
UniProtKB P22303

>  <readout label>
log10 EC30

>  <reported result>
0.32

$$$$
